- System: Raf-1^gof intestinal tumors; also: test concentration or dose not given here
- cond: screen of 480 ICCB compounds in vials; compounds fed to flies with one-day old Raf-1^gof tumors, assessed three days later; esg-Gal4 luciferase
Please provide measured Log2 (fold) (luciferase activity, log2 of the fold difference relative to DMSO controls) for the entries that follow.
Answers are plain numbers.

>  <compound>
CCCCCCCCCCCCC/C=C/[C@@H](O)[C@H](CO)NC(=O)CCCCCCC [C8 CERAMIDE]

>  <assayed system>
Raf-1^gof intestinal tumors; also: test concentration or dose not given here

>  <recorded value>
−0.427

$$$$
>  <compound>
CC1(O)CC23CC(O)C4(O)C(CC(O)C4(C)C)C(C)(O)C2CCC1C3O (stereo not shown) [GR[…]]

>  <assayed system>
Raf-1^gof intestinal tumors; also: test concentration or dose not given here

>  <recorded value>
−0.553

$$$$
>  <compound>
CO/C1=C\C(C)=C\[C@@H](C)[C@@H](O)[C@@H](C)C/C(C)=C/C=C/[C@H](OC)[C@@H]([C@@H](C)[C@@H](O)[C@H](C)[C@@]2(O)C[C@@H](O)[C@H](C)[C@@H](C(C)C)O2)OC1=O

>  <assayed system>
Raf-1^gof intestinal tumors; also: test concentration or dose not given here

>  <recorded value>
−0.234

$$$$
>  <compound>
CC(=O)OCOC(=O)CN(CC(=O)OCOC(C)=O)c1ccccc1OCCOc1ccccc1N(CC(=O)OCOC(C)=O)CC(=O)OCOC(C)=O

>  <assayed system>
Raf-1^gof intestinal tumors; also: test concentration or dose not given here

>  <recorded value>
−0.242

$$$$
>  <compound>
Nc1ccc2c3c(cccc13)C(=O)NC2=O

>  <assayed system>
Raf-1^gof intestinal tumors; also: test concentration or dose not given here

>  <recorded value>
−0.433

$$$$

// input: 2 compounds below; output: Log2 (fold) (luciferase activity, log2 of the fold difference relative to DMSO controls) for each
1. COC(C)(C)CCCC(C)C/C=C/C(C)=C/C(=O)O (stereo not shown)
2. CC/C(=C(\c1ccccc1)c1ccc(OCCN(C)C)cc1)c1ccccc1 [tamoxifen, reference compound]

["−0.328", "−1.562"]
